READOUT LABEL: melting point (°C)
Only the number, expressed in °C, is required.

O=C(CN1C(=O)c2ccccc2C1=O)Nc1cccc(OC(F)(F)F)c1 = 170

Data request: // melting point lookup, key: `C#Cc1ccc2sccc2c1`
Data returned: 55

* * *

This section presents molecules with their documented melting point values.

These recorded examples may help you get a feel for the data.
CC(C)Cn1cnc2c(N)nc3ccc(CCO)cc3c21 = 214 to 216 °C
Cc1cc(C(O)C[N+](=O)[O-])cc(C)c1Oc1ccc([N+](=O)[O-])c(Nc2ccc(C#N)cc2)n1 (centres undefined) = 230 to 234 °C
CSc1nccc(-c2c(-c3ccc(F)cc3)nc3occn23)n1 = 144 to 145 °C

Data request: // melting point lookup, key: `CCCCCCCCCCCCCC(=O)c1cc(O)c(C)c(C)c1O`
Data returned: 100 °C
